# System: Cystic fibrosis transmembrane conductance regulator (Homo sapiens, UniProt P13569, F508DEL)
# Sequence (P13569 as listed by the source): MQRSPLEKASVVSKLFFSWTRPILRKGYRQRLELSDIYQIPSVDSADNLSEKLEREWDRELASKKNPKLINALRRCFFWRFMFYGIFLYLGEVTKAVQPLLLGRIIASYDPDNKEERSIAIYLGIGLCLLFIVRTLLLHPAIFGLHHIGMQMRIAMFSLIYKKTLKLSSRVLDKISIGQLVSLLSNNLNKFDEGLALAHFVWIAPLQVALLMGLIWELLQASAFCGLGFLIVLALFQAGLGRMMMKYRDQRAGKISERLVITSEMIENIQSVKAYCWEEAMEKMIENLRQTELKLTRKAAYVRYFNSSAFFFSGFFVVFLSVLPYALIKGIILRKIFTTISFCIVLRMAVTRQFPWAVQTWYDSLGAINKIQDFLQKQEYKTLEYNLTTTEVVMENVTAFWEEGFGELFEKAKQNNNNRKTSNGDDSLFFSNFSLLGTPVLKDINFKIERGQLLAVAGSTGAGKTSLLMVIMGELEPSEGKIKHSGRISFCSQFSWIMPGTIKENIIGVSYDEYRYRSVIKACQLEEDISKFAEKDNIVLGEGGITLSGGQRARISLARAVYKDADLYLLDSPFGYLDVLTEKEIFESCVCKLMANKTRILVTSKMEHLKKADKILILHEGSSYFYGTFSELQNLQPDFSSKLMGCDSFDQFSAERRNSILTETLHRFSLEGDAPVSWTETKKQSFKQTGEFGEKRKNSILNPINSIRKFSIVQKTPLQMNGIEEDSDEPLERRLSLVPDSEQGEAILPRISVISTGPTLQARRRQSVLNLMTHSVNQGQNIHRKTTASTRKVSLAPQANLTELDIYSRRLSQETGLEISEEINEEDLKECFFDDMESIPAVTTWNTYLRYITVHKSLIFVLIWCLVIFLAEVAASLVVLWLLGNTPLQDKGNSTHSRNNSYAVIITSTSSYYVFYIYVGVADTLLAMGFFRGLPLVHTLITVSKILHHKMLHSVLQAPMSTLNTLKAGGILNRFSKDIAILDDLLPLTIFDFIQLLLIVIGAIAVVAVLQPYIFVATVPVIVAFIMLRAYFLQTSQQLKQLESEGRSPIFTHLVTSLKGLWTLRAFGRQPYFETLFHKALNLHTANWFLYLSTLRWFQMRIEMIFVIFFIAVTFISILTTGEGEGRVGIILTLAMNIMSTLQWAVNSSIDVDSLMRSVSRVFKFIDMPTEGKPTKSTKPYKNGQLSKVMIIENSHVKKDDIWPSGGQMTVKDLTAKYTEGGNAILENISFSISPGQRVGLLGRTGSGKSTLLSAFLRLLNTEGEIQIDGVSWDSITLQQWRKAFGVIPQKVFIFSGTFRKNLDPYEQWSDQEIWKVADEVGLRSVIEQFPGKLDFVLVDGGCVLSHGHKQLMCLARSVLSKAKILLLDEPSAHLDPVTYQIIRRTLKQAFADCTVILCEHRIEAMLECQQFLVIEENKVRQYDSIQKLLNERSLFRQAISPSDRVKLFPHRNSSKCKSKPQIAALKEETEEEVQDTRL
# Test Name: Correction of defective trafficking of human deltaF508 mutant CFTR protein expressed in FRT epithelial cells coexpressing YFP-H148Q/I152L protein assessed as iodide influx for 16 to 20 hrs by fluorescence assay
# Settings: read-out: IC50 (the source's name)
Binarize EC50 at 6 µM; below is T, at or above is F.

Below are worked cases with known answers.
{"Molecule": "COc1ccc([N+](=O)[O-])cc1Nc1nc2c(s1)CCCCc1nc(NC(=O)C(C)(C)C)sc1-2", "Cat": "T"}
{"Molecule": "Cc1cccnc1Nc1nc2c(s1)CCCc1nc(NC(=O)C(C)(C)C)sc1-2", "Cat": "F"}
{"Molecule": "COc1ccc(Cl)cc1Nc1nc2c(s1)CCCCc1nc(NC(=O)C(C)C)sc1-2", "Cat": "F"}
{"Molecule": "COC(=O)CCC(=O)Nc1nc2c(s1)-c1nc(Nc3cc(Cl)ccc3OC)sc1CCCC2", "Cat": "F"}
{"Molecule": "Cc1cccnc1Nc1nc2c(s1)CCCCc1nc(NC(=O)C(C)(C)C)sc1-2", "Cat": "T"}
{"Molecule": "CCC(C)C(=O)Nc1nc2c(s1)-c1nc(Nc3cc(Cl)ccc3OC)sc1CCC2 (stereo not given)", "Cat": "F"}
{"Molecule": "COc1ccc(Cl)cc1Nc1nc2c(s1)CCCc1nc(NC(=O)C(C)C)sc1-2", "Cat": "T"}
{"Molecule": "COc1ccc(Cl)cc1Nc1nc2c(s1)CCCc1nc(NC(=O)C(C)(C)C)sc1-2", "Cat": "T"}

Regarding "COc1ccc(Cl)cc1Nc1nc2c(s1)CCCCc1nc(NC(=O)C(C)(C)C)sc1-2" , kindly confirm whether its EC50 is beneath 6 µM.
T

Regarding "COc1ccc(Cl)cc1Nc1nc2c(s1)CCCc1nc(NC(=O)C3CC3)sc1-2" , kindly confirm whether its EC50 is beneath 6 µM.
F
